# assay-text: Cytotoxicity against human proliferating PBMCs assessed as cell viability after 48 hrs at 30 uM by MTT assay
# Format: cell-based, PBMC
# assay-setup: read-out: Activity
quantity: viability at 48 h, 30 µM

[[record]]
smiles_input = "COC(=O)c1c(C)c(C)cc2c(=O)cc(-c3ccccc3C)oc12"
result = "75%"

